- Protocol description: Solubility study of AST-3424 (shaking at 25° C., HPLC content)
- Format: physicochemical
- Assay conditions: purified water, 25 °C, water, thermodynamic from solid, Purified water, 8 h, read-out: Content (solubility test)
- Description: An appropriate amount of AST-3424 (hereinafter called active pharmaceutical ingredients or API) was taken and placed in a suitable container containing 40 ml of the mentioned-above solutions (20 ml for organic solvents) respectively until excess oil droplets of AST-3424 existed in the solution. Samples were put in a constant temperature shaking incubator at 25° C. and shaken at a proper speed (100 rpm). […] It should be noted that the dilution ratio after test was accurately recorded. […]

# Compound structure string, solubility at 8 h [mg/mL]
records = [
    ("C[C@H](OP(=O)(N1CC1)N1CC1)c1ccc([N+](=O)[O-])c(Oc2cccc(C(=O)N(C)C)c2)c1", 19.7),
]

###

- Protocol description: Pharmacokinetics after single intravenous drip infusion, plasma LC-MS/MS
- Type: in vivo, Philippine macaques
- Assay conditions: male, Philippine macaque, plasma, intravenous, 0.42 mg/kg, AST-3424-D6 intravenous drip infusion 0.42 mg/kg; 0.17 hr; individual animals 101, 102, 103; read-out: Plasma-drug concentration
- Experimental: AST-3424 and AST-3424-D6 (i.e. the compound of formula I) were administered to Philippine macaques by intravenous drip infusion, and blood samples were collected at different appointed times. LC-MS/MS was used to determine concentrations of the test substances in plasma of the Philippine macaques after administration, and relevant pharmacokinetic parameters were calculated. […]

# Compound structure string, concentration at 0.17 hr (ng/mL)
data = [
    ("[2H]C([2H])([2H])N(C(=O)c1cccc(Oc2cc([C@H](C)OP(=O)(N3CC3)N3CC3)ccc2[N+](=O)[O-])c1)C([2H])([2H])[2H]", 416),
]

###

- Protocol description: Pharmacokinetics after single intravenous drip infusion, plasma LC-MS/MS
- Type: in vivo, Philippine macaques
- Assay conditions: male, Philippine macaque, cynomolgus monkey, plasma, iv, 0.42 mg/kg, AST-3424-D6 single intravenous infusion, Table 15 heading 0.58 mg/kg (text: 0.42 mg/kg); plasma; individual animals 101, 102, 103; read-out: AUC(0−∞)

# Compound, AUC(0-inf) / ng·h/mL
data = [
    ("[2H]C([2H])([2H])N(C(=O)c1cccc(Oc2cc([C@H](C)OP(=O)(N3CC3)N3CC3)ccc2[N+](=O)[O-])c1)C([2H])([2H])[2H] [AST-3424-D6]", 334),
]

###

- Protocol description: Pharmacokinetics after single intravenous drip infusion, plasma LC-MS/MS
- Format: in vivo, Philippine macaques
- Assay conditions: male, Philippine macaque, plasma, intravenous, 0.42 mg/kg, AST-3424-D6 intravenous drip infusion 0.42 mg/kg; 1 hr; read-out: Plasma-drug concentration, mean

# Compound, Uom, concentration at 1 hr
measured = [
    ("[2H]C([2H])([2H])N(C(=O)c1cccc(Oc2cc([C@H](C)OP(=O)(N3CC3)N3CC3)ccc2[N+](=O)[O-])c1)C([2H])([2H])[2H] [AST-3424-D6]", "µg/mL", 0.0338),
]

###

- Protocol description: Solubility study of AST-3424 (shaking at 25° C., HPLC content)
- Assay type: physicochemical
- Assay conditions: ethanol/propylene glycol (50:50, v/v), 25 °C, organic solvent or mixture, thermodynamic from solid, Ethanol/Propylene glycol (50:50, v/v), 1 h, read-out: Content (solubility test)

# Compound structure string, solubility at 1 h (mg/mL)
data = [
    ("C[C@H](OP(=O)(N1CC1)N1CC1)c1ccc([N+](=O)[O-])c(Oc2cccc(C(=O)N(C)C)c2)c1", 271),
]
